Experiment: Inhibition of abalone entrails type 8 recombinant sulfatase expressed in Escherichia coli by fast phase inactivation
Set-up: species or system Haliotis corrugata
Measurement Label: Ki (µM)
Quick note: give the figure in µM, leave out the unit.

// lookup Ki for NS(=O)(=O)Oc1cccc([N+](=O)[O-])c1 1600

----------
Target: Arylsulfatase (Pseudomonas aeruginosa (strain ATCC 15692 / PAO1 / 1C / PRS 101 / LMG12228), UniProt P51691)
Sequence (P51691 whole entry): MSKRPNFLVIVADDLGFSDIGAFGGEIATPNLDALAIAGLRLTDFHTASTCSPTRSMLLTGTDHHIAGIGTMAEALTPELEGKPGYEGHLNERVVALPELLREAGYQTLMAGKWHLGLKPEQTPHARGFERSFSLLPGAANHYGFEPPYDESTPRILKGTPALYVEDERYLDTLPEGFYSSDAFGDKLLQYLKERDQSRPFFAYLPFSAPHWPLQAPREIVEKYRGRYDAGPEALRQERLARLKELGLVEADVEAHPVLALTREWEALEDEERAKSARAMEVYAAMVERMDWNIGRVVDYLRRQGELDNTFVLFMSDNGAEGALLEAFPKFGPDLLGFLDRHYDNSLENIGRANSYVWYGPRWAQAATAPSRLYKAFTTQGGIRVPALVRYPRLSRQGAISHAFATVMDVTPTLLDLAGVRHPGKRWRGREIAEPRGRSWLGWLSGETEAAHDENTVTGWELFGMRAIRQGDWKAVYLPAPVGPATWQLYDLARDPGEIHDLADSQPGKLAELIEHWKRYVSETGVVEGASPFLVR
Test: Inhibition of Pseudomonas aeruginosa recombinant arylsulfatase A expressed in Escherichia coli
Measurement Label: pKi
Lab note — pKi values are minus log10 of concentrations in M.

// lookup pKi for NS(=O)(=O)Oc1cccc([N+](=O)[O-])c1 6.89
